- Experimental target: human ERα (Homo sapiens)
- Construct: These templates contained amino acids M250-V595 of human ERα; His (N); Flag (C); made in house; host or cells: E. coli BL21 (DE3), clarified lysate
- Sequence (P03372 250-595): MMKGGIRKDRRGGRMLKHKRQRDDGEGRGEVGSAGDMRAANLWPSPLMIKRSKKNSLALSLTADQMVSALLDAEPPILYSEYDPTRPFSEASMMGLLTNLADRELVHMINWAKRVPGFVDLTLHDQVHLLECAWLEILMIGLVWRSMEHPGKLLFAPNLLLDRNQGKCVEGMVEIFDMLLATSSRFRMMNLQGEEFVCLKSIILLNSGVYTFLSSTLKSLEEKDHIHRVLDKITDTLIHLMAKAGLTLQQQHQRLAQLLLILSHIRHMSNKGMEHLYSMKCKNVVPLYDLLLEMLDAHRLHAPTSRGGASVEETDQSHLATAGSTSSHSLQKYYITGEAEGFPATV
- Procedure summary: ER radioligand binding competition, ERα
Kindly supply the reported IC50 values for the records listed here.

stdin: Consider the compound shown here: Oc1ccc2nc(-c3ccc(O)c(F)c3)oc2c1 What is its recorded IC50?
stdout: 843 nM

stdin: Consider the compound shown here: Oc1ccc2nc(-c3cccc(O)c3O)oc2c1 What is its recorded IC50?
stdout: 1500 nM

stdin: Consider the compound shown here: C=Cc1cc(O)cc2nc(-c3ccc(O)cc3)oc12 What is its recorded IC50?
stdout: 409 nM
